SUBJECT OF TEST: Alpha-1B adrenergic receptor (Homo sapiens, UniProt P35368)
Sequence (P35368 whole entry): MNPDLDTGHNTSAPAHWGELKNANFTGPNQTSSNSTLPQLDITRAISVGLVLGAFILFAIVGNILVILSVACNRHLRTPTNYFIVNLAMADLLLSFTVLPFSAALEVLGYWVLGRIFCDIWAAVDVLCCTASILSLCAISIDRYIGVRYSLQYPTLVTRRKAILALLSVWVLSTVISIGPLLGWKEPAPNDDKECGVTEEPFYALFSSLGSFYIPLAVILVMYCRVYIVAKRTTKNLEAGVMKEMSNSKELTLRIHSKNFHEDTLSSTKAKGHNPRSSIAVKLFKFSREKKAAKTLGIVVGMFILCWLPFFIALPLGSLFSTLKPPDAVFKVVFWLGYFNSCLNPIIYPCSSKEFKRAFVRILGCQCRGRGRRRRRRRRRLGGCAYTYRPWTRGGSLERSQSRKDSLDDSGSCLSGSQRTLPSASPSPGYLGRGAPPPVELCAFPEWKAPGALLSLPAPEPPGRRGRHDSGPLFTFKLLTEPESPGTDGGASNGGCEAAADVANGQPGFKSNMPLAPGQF
pIC50: −log10 of the molar value.
// cross-study collection: pIC50 for Alpha-1B adrenergic receptor (Homo sapiens, UniProt P35368)
Returns T if the recorded pIC50 is greater than or equal to 6, and F otherwise.

// below: answered molecules
MOLECULE	CLASS
c1ccc(-c2ncco2)c(NCC2=NCCN2)c1	T
CO/N=C/c1ccccc1NCC1=NCCN1	T
Fc1ccc2[nH]c3c(c2c1)CC1c2cc4c(cc2CCN1C3)OCO4 (configuration not stated)	F
CCN(CC)C(=O)c1ccccc1OCc1c[nH]cn1	F
CCCCNC(=O)c1ccccc1NCC1=NCCN1	F

Check the entry c1cnc(-c2ccccc2NCC2=NCCN2)nc1 : does pIC50 equal or exceed 6? F

Try this molecule too: Cc1ncoc1-c1ccccc1NCC1=NCCN1 T

----------
SUBJECT OF TEST: Alpha-1B adrenergic receptor (Homo sapiens, UniProt P35368)
Sequence (P35368 whole entry): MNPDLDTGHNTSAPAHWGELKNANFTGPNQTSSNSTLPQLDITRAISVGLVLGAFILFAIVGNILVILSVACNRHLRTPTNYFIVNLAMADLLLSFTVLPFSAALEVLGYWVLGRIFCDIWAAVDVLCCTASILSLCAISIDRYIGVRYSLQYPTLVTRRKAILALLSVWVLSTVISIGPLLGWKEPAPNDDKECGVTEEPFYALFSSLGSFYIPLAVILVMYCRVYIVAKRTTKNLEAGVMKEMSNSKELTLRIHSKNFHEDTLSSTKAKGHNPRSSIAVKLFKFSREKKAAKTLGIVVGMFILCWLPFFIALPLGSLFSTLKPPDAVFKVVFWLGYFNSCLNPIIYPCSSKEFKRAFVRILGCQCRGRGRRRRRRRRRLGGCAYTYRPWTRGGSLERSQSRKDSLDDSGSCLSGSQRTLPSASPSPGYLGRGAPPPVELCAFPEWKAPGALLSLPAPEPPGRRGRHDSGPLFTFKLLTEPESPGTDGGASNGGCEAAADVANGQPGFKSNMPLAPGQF
// cross-study collection: log10(IC50) for Alpha-1B adrenergic receptor (Homo sapiens, UniProt P35368)
// units: nM (pre-log); metric: IC50; scale: log10

Previously resolved entries follow.
COMPOUND SMILES	RESULT NUMBER
COc1ccc(N2CCN(CCc3ccc(CN4C(=O)c5ccccc5C4=O)cc3)CC2)cc1	2.61
CCN(C)C(=O)c1ccccc1NCC1=NCCN1	4.02
O=C1c2ccccc2C(=O)N1Cc1ccc(CCN2CCN(c3ccc(F)cc3F)CC2)cc1	2.90
c1ccc(-c2ccccc2NCC2=NCCN2)nc1	2.77
O=C1c2ccccc2C(=O)N1Cc1ccc(CCN2CCN(c3ccccc3F)CC2)cc1	3.27

Give log10(IC50) for all molecules that follow.
1. CS(=O)(=O)c1ccccc1N1CCN(CCc2ccc(CN3C(=O)c4ccccc4C3=O)cc2)CC1
2. O=C1c2ccccc2C(=O)N1Cc1ccc(CCN2CCN(c3ccccc3)CC2)cc1

1: 2.30; 2: 2.94

----------
// cross-study collection: IC50 for UniProt P35368
SUBJECT OF TEST: UniProt P35368
Sequence (P35368 whole entry): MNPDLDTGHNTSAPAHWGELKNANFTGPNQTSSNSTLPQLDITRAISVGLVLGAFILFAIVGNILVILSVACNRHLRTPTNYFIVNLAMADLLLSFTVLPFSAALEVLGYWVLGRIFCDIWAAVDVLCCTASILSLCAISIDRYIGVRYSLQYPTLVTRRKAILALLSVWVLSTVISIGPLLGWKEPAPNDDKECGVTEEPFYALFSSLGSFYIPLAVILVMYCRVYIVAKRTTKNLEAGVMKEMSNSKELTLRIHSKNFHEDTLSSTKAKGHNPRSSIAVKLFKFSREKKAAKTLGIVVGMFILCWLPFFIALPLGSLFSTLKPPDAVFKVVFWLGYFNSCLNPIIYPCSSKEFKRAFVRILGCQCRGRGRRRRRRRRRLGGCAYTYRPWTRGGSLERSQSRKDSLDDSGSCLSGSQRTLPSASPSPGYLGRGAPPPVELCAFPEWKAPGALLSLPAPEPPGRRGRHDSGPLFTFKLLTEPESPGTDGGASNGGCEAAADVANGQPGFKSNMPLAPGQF
Classify: Criterion met when IC50 is strictly less than 200 nM; Criterion not met when IC50 is not.

// below: answered compounds
COMPOUND SMILES	CLASS
CCCNC(=O)c1ccccc1NCc1c[nH]cn1	Criterion not met
N=C(Nc1ccc2c(c1)CCN2C1CCNCC1)c1cccs1	Criterion not met
Cc1ccc(N2CCN(CCc3ccc(CN4C(=O)c5ccccc5C4=O)cc3)CC2)cc1	Criterion met

Does the reported IC50 of the following compound sit strictly below 200 nM? CSc1ccccc1NCC1=NCCN1 Criterion not met

Try this compound too: c1ccc(-c2ccccc2OCc2c[nH]cn2)cc1 Criterion not met

Try this compound too: COCCN(CCOC)c1nc(C)nc2c(-c3ccc(OC)cc3C)c(C)nn12 Criterion not met

Try this compound too: N#Cc1ccccc1N1CCN(CCc2ccc(CN3C(=O)c4ccccc4C3=O)cc2)CC1 Criterion met

----------
// cross-study collection: pIC50 for Alpha-1B adrenergic receptor (Homo sapiens)
pIC50: −log10 of the molar value.
Returns fulfilled if the recorded pIC50 is greater than or equal to 6, and not fulfilled otherwise.

// below: answered compounds
COMPOUND	CLASS
c1ccc2c3c([nH]c2c1)CN1CCc2cc4c(cc2[C@@H]1C3)OCO4	not fulfilled
CC(=O)c1ccc(N2CCN(CCc3ccc(CN4C(=O)c5ccccc5C4=O)cc3)CC2)cc1	fulfilled
O=C(NC1CC1)c1ccccc1NCC1=NCCN1	not fulfilled

Check the entry COc1cccc2[nH]c3c(c12)CC1c2cc4c(cc2CCN1C3)OCO4 (stereo unspecified) : does pIC50 equal or exceed 6? not fulfilled

Try this compound too: COCCN(CCOC)c1nc(C)nc2c(-c3cc(C)c(OC)cc3C)c(C)nn12 not fulfilled

----------
// cross-study collection: pIC50 for Alpha-1B adrenergic receptor (Homo sapiens)
pIC50: −log10 of the molar value.

Give pIC50 for all compounds that follow.
1. COc1cc(N)c(Cl)cc1C(=O)NC1C2CC3CN(C2)CC31.Cl (stereo not drawn)
2. CCC(CC)Nc1nc(C)nc2c(-c3cc(F)c(OC)cc3Cl)c(C)nn12
3. CCCOc1cc2c(cc1OC)CCN1Cc3[nH]c4ccc(OC)cc4c3CC21 (stereo not drawn)

1: < 5.00; 2: < 6.00; 3: < 5.00

----------
// cross-study collection: log10(IC50) for Alpha-1B adrenergic receptor (Homo sapiens)
// units: nM (pre-log); metric: IC50; scale: log10

Previously resolved entries follow.
COMPOUND SMILES	log10(IC50)
c1ccc(-c2ccno2)c(NCC2=NCCN2)c1	2.12
COc1ccccc1N1CCN(CCc2ccc(CN3C(=O)c4ccccc4C3=O)cc2)CC1	2.00
c1ccc(-c2ccccc2OCC2=NCCN2)cc1	3.38
O=C1c2ccccc2C(=O)N1Cc1ccc(CCN2CCN(c3ccccc3Cl)CC2)cc1	2.89

Below: the item to evaluate.
Look up log10(IC50) for this compound: CNC(=O)c1ccccc1NCC1=NCCN1 2.84
